Data origin: PubChem BioAssay AID743395

# RUN_DESCRIPTION: HepG2 cell cytotoxicity, dose response, cytotoxicity control, CellTiter-Glo luminescence, cherry-pick, set 2 (AID 743395)
# TEST_PARAMETERS: HepG2 viability, CellTiter-Glo ATP luminescence, 72 h; series mostly up to 26 µM
Screen size: about 1,200 compounds; about 480 (40%) were called active. The set was probably picked from earlier hits. Only a sample is shown. Results with a measured potency or affinity are listed apart.
ENDPOINT_NAME: outcome

Some solved entries appear below for comparison.
SUBSTANCE_SMILES: Cc1cc(C)nc(N(C#N)Cc2cccc(Cl)c2)n1
outcome: inactive

SUBSTANCE_SMILES: O=C(NCc1nnnn1-c1ccc(Cl)cc1)C(=O)c1c[nH]c2ccccc12
outcome: inactive

SUBSTANCE_SMILES: COc1cccc(NC(=O)CN2C(=O)NC3(CCCCCC3)C2=O)c1
outcome: inactive

SUBSTANCE_SMILES: CCCOc1cc(N(CC)CC)ccc1/C=C(/C#N)c1nc2ccc(C)cc2[nH]1
outcome: inactive

Input line: // fetch outcome given entry COc1ccccc1/C=C/C=N/NC(=O)CCn1cnc2ccccc21
Output line: inactive

Input line: Dear colleague, please send me the reported outcome for CCN(CC)C(=S)SSC(=S)N(CC)CC when you can.
Output line: inactive
